The reported measurements were obtained from PubChem BioAssay AID1259319.

- assayed.system: Nuclear receptor subfamily 1 group D member 1 (Homo sapiens) (UniProt P20393)
- Sequence (P20393 whole entry, looked up): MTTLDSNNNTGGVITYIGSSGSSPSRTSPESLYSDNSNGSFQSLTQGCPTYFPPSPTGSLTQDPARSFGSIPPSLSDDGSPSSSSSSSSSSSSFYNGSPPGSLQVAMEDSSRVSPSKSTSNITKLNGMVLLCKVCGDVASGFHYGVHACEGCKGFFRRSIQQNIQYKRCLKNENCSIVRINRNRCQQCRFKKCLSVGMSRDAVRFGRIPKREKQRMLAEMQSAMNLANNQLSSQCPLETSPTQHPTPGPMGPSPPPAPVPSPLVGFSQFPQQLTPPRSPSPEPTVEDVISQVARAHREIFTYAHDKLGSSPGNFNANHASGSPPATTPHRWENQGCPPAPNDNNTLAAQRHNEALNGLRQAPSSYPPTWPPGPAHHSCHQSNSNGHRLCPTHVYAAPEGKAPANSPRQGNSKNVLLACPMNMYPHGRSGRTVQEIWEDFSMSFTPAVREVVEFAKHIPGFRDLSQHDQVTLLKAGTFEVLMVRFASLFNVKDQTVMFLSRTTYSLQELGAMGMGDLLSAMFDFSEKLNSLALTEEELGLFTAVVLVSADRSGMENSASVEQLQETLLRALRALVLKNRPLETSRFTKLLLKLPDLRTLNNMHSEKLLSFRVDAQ
- assay.summary: Rev-erbα–DNA interaction modulation, retest – biochemical, FITC-DNA, fluorescence polarization, single point, confirmation (AID 1259319);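 further: 0% = 35 nM protein with DMSO and 100% = 750 nM protein high control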
- condition.info: Rev-erb alpha FITC-DNA binding, 90 min, at 25 µM, active compounds read high
Screen size: about 3,000 compounds; about 1,800 (60%) were called active. So high a share suggests a set chosen from earlier hits. The list is a sample of the results.
Consider the following compounds and their measured activation readings.

Cc1cc2cc3c(cc2nc1SCC(=O)Nc1c(C)cccc1C)CCC3 :: 16.2% (inactive)
CN(C)S(=O)(=O)c1ccc(N2CCCC2)c(C(=O)Nc2ccc(Br)cc2F)c1 :: 10.4% (inactive)
CCCCCCSc1ccc(-c2nc3ccc(Cl)cn3c2NCc2ccccc2)cc1 :: 12.7% (inactive)

activation reported for this compound "Cc1nc(N2CCN(c3ccccn3)CC2)c2c(C)c(C(=O)Nc3ccc(F)c(Cl)c3)sc2n1" : 17.3% (inactive)

activation reported for this compound "Cc1c(-c2ccccc2)nc(N)c(C#N)c1-c1cccs1" : 16.4% (inactive)

activation reported for this compound "CC(C)OCCCNC(=O)CN1C(=O)/C(=C/c2ccccc2F)Oc2ccccc21" : -0.363% (inactive)

activation reported for this compound "CC(C)Cn1c(CN(Cc2ccccc2)Cc2ccccc2)nc2c1c(=O)n(C)c(=O)n2C" : 48.3% (active)

activation reported for this compound "Cc1cc(Br)ccc1NC(=O)c1sc2ncn(CC(=O)N3CCN(c4ccccn4)CC3)c(=O)c2c1C" : 37.6% (active)

activation reported for this compound "C[n+]1ccc(/C=C/c2c[nH]c3ccccc23)cc1" : 136% (active)

* * *

- assayed.system: Nuclear receptor subfamily 1 group D member 1 (Homo sapiens) (UniProt P20393)
- assay.summary: Rev-erbα–DNA interaction modulation, retest – biochemical, FITC-DNA, fluorescence polarization, single point, confirmation (AID 1259319);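 further: 0% = 35 nM protein with DMSO and 100% = 750 nM protein high control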
- condition.info: Rev-erb alpha FITC-DNA binding, 90 min, at 25 µM
The campaign covered roughly 3,000 compounds. About 1,800 (60%) were called active.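 How the source made its calls: active means activation at or above a set limit, or at least 3 SD above the negative control mean; inactive means the rest.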 So high a share suggests a set chosen from earlier hits. Only a sample is shown.
Outcome field: choose from active, inactive

Here are 5 compounds together with their reported answers.
CCOC(=O)C1=C(c2ccccc2)O/C(=C(/C(=O)OC)C(F)(F)F)S1 :: inactive
CCOC(=O)c1sc(NC(=O)CCN2CCOCC2)c(C(=O)OCC)c1C :: inactive
Cc1cc(C)c2c(-c3ccc(F)cc3)c(C#N)c(=O)n(C)c2n1 :: active
COCc1cc(C)nc(SCC(=O)Nc2cccc(C)c2)c1C#N :: inactive
CCOC(=O)c1c(NC(=O)CN2C(=O)NC3(CCC(C)CC3)C2=O)sc(C)c1CC (configuration not stated) :: inactive

Task: Lab log entry: "CCOc1ccc2cc(C#N)c(SCC(=O)OC)nc2c1" — outcome as called in the assay?
Output: active

Task: Lab log entry: "COc1cccc(-n2c(SCC(=O)c3c[nH]c4ccccc34)nc3ccccc3c2=O)c1" — outcome as called in the assay?
Output: active
